tested_on: adenosine A3 receptor (Homo sapiens (Human))
Sequence (P0DMS8 whole entry): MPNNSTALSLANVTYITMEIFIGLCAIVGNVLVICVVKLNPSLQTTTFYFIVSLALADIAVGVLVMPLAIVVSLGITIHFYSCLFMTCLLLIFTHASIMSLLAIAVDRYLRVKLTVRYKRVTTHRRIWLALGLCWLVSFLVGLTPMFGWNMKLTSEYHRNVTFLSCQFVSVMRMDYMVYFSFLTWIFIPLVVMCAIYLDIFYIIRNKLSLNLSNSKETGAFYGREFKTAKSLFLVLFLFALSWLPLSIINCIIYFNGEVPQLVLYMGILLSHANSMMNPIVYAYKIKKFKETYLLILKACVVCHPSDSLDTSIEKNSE
method_notes: Adenosine receptor activity assay (Table 1), A3 cAMP
Type: cell-based
pIC50: −log10 of the molar value.
Reported pIC50 values for a set of molecules

{"columns": ["molecule", "pIC50"],
 "data": [
  ["Cc1cc2nc(N[C@@H](C)c3cncc(F)c3)nc(C(=O)NC[C@H]3CCOC3)c2s1", "7.00 to 7.30"],
  ["Cc1cc2nc(N[C@@H](C)c3ccccn3)nc(C(=O)NC3CCC3)c2s1", "7.00 to 7.30"],
  ["CO[C@@H]1CCN(C(=O)c2nc(N[C@@H](C)c3cncc(F)c3)nc3ccsc23)C1", "< 6.30"],
  ["C[C@H](Nc1nc(C(=O)N2CC[C@@H](O)C2)c2sc(C(F)(F)F)cc2n1)c1cncc(F)c1", "< 6.30"],
  ["Cc1cc2nc(N[C@@H](C)c3ccccn3)nc(C(=O)NC[C@@H](C)O)c2s1", "7.00 to 7.30"],
  ["C[C@H](Nc1nc(C(=O)NCCO)c2sccc2n1)c1cncc(F)c1", "< 6.30"],
  ["C[C@H](Nc1nc(C(=O)NCC(F)(F)F)c2sccc2n1)c1cncc(F)c1", "< 6.30"],
  ["C[C@H](Nc1nc(C(=O)N2CC[C@@H](F)C2)c2sccc2n1)c1cncc(F)c1", "< 6.30"],
  ["CNc1cc2nc(N[C@@H](C)c3cncc(F)c3)nc(C(=O)N3CCCC3)c2s1", "7.00 to 7.30"],
  ["C[C@H](Nc1nc(C(=O)N2CC[C@@H](O)C2)c2sc(C(F)(F)F)cc2n1)c1cccnc1", "< 6.30"],
  ["C[C@H](Nc1nc(C(=O)N2CC[C@H](CO)C2)c2sccc2n1)c1cncc(F)c1", "< 6.30"],
  ["Cc1cc2nc(N[C@@H](C)c3cccnc3)nc(C(=O)NC[C@@H](C)O)c2s1", "7.00 to 7.30"],
  ["Cc1cc2nc(N[C@@H](C)c3cncc(F)c3)nc(C(=O)N3CC[C@H](O)C3)c2s1", "< 6.30"],
  ["C[C@H](Nc1nc(C(=O)NCCC2CCNC2)c2sccc2n1)c1cncc(F)c1 (stereo partly shown)", "< 6.30"],
  ["C[C@H](Nc1nc(C(=O)NC[C@@H](C)O)c2sc(C(F)(F)F)cc2n1)c1cncc(F)c1", "7.00 to 7.30"],
  ["Cc1cc2nc(N[C@@H](C)c3cccnc3)nc(C(=O)NC[C@H](C)O)c2s1", "7.00 to 7.30"],
  ["COc1cccc(CNC(=O)c2nc(N[C@@H](C)c3cncc(F)c3)nc3cc(C)sc23)n1", "7.30 to 8.00"],
  ["C[C@H](Nc1nc(C(=O)NCCc2ccc(CO)cc2)c2sccc2n1)c1cncc(F)c1", "< 6.30"],
  ["Cc1cc2nc(N[C@@H](C)c3cncc(F)c3)nc(C(=O)NCC3CCOCC3)c2s1", "7.00 to 7.30"],
  ["CC(=O)N[C@H]1CCN(C(=O)c2nc(N[C@@H](C)c3cncc(F)c3)nc3ccsc23)C1", "< 6.30"],
  ["C[C@H](Nc1nc(C(=O)N2CCC[C@H]2C)c2sccc2n1)c1cncc(F)c1", "< 6.30"],
  ["C[C@H](Nc1nc(C(=O)NC(C)(C)C)c2sccc2n1)c1ccccn1", "7.00 to 7.30"],
  ["CC(C)(C)OC(=O)N[C@@H]1CCN(C(=O)c2nc(NCc3cncc(F)c3)nc3ccsc23)C1", "7.30 to 8.00"],
  ["Cc1cc2nc(N[C@@H](C)c3cncc(F)c3)nc(C(=O)N3CCCC3)c2s1", "7.00 to 7.30"],
  ["Cc1cc2nc(N[C@@H](C)c3cccnc3)nc(C(=O)N3CC[C@@H](O)C3)c2s1", "< 6.30"]
]}
